Consider the following binders; for each one, report its plasmin generation, Imax.
# SYSTEM_NAME: glycosylated human PAI-1 (active form) (human, UniProt P05121 24-402, glycosylated (sites not given))
# Sequence (P05121 24-402 limits assumed, form in doubt): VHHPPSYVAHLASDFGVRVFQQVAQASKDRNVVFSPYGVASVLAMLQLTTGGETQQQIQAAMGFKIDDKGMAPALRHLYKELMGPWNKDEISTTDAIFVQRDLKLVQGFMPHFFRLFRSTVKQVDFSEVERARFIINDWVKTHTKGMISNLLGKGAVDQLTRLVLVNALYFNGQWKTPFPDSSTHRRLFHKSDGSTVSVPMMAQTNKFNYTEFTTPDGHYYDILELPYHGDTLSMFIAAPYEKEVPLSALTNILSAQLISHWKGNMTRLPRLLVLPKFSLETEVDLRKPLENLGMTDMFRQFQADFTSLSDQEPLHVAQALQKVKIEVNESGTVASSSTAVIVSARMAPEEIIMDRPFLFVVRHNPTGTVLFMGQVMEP
# PROTOCOL_NOTES: cell-based or functional assay
One number for each entry, in %.

1) E16 (antibody, mouse IgG1, V domains shown) VH: EVKLVESGGGLVKPGGSLKLSCAASGFTFSNYGMSWVRQTPEKGLGWVASLRTGGNTYYSDSVKGRFTISRDNDRNILYLQMSSLTSEDTAVYYCARGLRHWGYFDVWGAGTTVTVSS VL: DIVMTQSHKFMSTSVGDRVNITCKASQDVSTAVGWYQQEPGQSPKLLIYSASNRHTGVPDRFTGSGSGTDFTFTISSVQAEDLAVYYCQQHYSSPWTFGGGTKLEIK = 95
2) B109 (antibody) chain 1: SGQGLDWIGAIYPGNSDTTYNQKFEDKAKLTAVASASTAYMEVSSLTNEDSAVYYCTRGLRRWGAMDYWGQGTSVTVSS chain 2: DIVMTQSHKFMSTSAGDRVSIPCKASQDVSSAVAWYQQKLGQSPKLLIYSASFRYTGVPDRFTGSGSGTDFTFTISSVQAEDLAVYYCQQHYSSPYTFGGGTNLEIK = 94
3) A44 (antibody, mouse IgG1, V domains shown) VH: EMQLQESGPSLVKPSQTLSLTCSVTGDSMTNGYWNWIRKFPGNKLEYMGYITYSGSTYYNPSLKGRISITRNTSKNQYYLQLSSVTTEDTATYYCARWHYGSPYYFDYWGQGTTLTVSS VL: DIKMTQSPSSMYASLGERVTITCKASQDINSYLSWLQQKPGKSPKTLIYRANRSVDGVPSRFSGSGSGQDYSLTISSLEYEDMGIYYCLQYDEFPPTFGGGTKLEIKR = 97
4) C45 (antibody, mouse IgG2b, V domains shown) VH: QVQLQQSGVELVRPGTSVKVSCKASGYAFTNYLIEWIKQRPGQGLEWIGVIHPGSGVTNYNEKFKGKAILTADKSSSTAYMQLSSLTSDDSAVYFCARDYYGSSHGLMDYWGQGTSVTVSS VL: DIKMTQSPSSMYASLGERVTITCKASQDINSYLSWFQQKPGKSPKTLIYRANRLVDGVPSRFSGSGSGQDYSLTISSLEYEDMGIYYCLQYDEFPRTFGGGTKLEIK = 97

Alright, here's another binder for you.
Data request: Any idea what its plasmin generation, Imax is? The binder is B28 (antibody, mouse IgG2b, V domains shown) VH: QVQLQQSGAELMKPGASVKISCKATGYTFSISWIEWIKQRPGGLEWIGKILPGSGGANYNEKFKGKATVTADTSSNTVYMQLSSLTSEDSAVYYCARLSTGTRGAFDYWGQGTTLTVSS VL: DIQLTQSPASLSASVGATVTITCRASENVYSYLAWYQQKQGKSPQLLVYNAKTLAEGVPSRFSGSGSGTQFSLKINYLQPEDFGSYYCQHHYGTPPTFGGGTKVEIKR
Data returned: 90
